Measured koff accompanies every entry in the list below.
# TARGET_DESC: Recombinant human his-tagged IGF 1R extracellular domain protein (human) (UniProt P08069)
# PROCEDURE_TEXT: SPR, captured IgG, IGF-1R ECD-his analyte, dissociation pH 6
Numeric answer only, unit s⁻¹ assumed.

VRDN-02569 (antibody, V domains shown) VH: EVQLVQSGGGLVKPGGSLRLSCAASGFTFSSFHMHWVRQAPGKGLEWISVIHTRGATYYADSVKGRFTISRDNAKNSLYLQMNSLRAEDTAVYYCARLGNFYYGMDVWGQGTTVTVSS VL: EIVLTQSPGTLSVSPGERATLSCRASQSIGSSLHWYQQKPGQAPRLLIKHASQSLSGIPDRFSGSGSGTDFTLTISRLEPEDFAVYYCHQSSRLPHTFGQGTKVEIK: 0.000516

Consider the binder VRDN-02536 (antibody, V domains shown) VH: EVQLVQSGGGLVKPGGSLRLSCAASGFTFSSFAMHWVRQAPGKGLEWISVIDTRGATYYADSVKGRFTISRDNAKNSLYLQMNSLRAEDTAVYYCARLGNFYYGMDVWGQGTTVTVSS VL: EIVLTQSPGTLSVSPGERATLSCRASQSIGSHLHWYQQKPGQAPRLLIKYASQSLSGIPDRFSGSGSGTDFTLTISRLEPEDFAVYYCHQSSRLPHTFGQGTKVEIK and give its measured koff. 1e-06
